# systemUnderTest: Ba/F3 EGFR L858R/T790M/C797S (LTC) (Homo sapiens, UniProt P00533, T790M/C797S/L858R, cells depend on it)
# Sequence (P00533 whole entry T790M/C797S/L858R): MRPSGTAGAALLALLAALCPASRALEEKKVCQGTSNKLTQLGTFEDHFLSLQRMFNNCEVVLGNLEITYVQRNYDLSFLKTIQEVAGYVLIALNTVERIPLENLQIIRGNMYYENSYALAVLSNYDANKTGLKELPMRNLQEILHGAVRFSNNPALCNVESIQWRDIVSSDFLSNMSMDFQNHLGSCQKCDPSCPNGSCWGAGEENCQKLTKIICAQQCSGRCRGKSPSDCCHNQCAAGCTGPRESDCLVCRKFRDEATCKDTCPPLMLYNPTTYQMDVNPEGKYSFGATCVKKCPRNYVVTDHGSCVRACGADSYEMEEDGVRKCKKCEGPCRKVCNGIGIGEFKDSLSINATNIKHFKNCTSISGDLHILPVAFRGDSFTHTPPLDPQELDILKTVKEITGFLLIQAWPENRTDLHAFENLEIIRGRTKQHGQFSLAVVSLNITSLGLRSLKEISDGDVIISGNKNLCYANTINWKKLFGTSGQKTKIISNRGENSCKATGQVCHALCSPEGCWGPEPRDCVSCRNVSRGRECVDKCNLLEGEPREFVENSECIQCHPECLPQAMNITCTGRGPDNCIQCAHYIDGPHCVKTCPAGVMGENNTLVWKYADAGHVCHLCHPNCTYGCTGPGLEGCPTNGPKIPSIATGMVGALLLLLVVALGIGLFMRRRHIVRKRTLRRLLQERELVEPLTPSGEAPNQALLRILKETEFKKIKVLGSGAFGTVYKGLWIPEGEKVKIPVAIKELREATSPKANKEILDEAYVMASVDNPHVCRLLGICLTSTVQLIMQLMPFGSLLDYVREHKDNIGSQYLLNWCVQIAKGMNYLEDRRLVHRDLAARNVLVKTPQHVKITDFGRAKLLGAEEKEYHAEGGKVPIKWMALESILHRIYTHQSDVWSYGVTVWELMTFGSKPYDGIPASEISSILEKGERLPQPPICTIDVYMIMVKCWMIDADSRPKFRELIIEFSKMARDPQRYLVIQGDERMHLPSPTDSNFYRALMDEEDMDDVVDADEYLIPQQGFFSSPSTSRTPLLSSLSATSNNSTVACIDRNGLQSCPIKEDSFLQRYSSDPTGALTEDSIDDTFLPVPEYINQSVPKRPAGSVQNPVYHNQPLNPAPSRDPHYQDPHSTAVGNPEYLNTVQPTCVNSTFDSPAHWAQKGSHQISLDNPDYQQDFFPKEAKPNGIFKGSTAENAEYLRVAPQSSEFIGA
# procedureSummary: Cell growth inhibitory ability in Ba/F3 cells overexpressing EGFR L858R/T790M/C797S (MTS, CellTiter 96 AQueous)
# Type: cell-based
# runConditions: 72 hours, MTS absorbance at 490 nm, read-out: Ba/F3 EGFR triple mutant L858R/T790M/C797S, IC50
Catalogue of molecules with associated GI50
recordedEndpoint: GI50

{"molecule": "COCCOc1ccc(N2CCN(c3cnc(-c4cc(C)cc(C(=O)N[C@@H](c5cc6ccccc6[nH]5)c5cc(F)ccc5O)c4)nc3)CC2)cc1", "recordedEndpoint": "GI50", "testResult": "> 0.2 µM"}
{"molecule": "Cc1cc(C(=O)N[C@@H](c2cc3ccccc3[nH]2)c2cc(F)ccc2O)cc(-c2ncc(N3CCC(C(=O)Nc4ccccc4)CC3)cn2)c1", "recordedEndpoint": "GI50", "testResult": "> 0.2 µM"}
{"molecule": "Cc1cc(C(=O)N[C@@H](c2cc3ccccc3[nH]2)c2cc(F)ccc2O)cc(-c2ccc(N3CCC(N)CC3)cc2C)c1", "recordedEndpoint": "GI50", "testResult": "< 0.03 µM"}
{"molecule": "NC1CCN(c2ccc(-c3cc(C(=O)N[C@@H](c4cc5ccccc5[nH]4)c4cc(F)ccc4O)cc([N+](=O)[O-])c3)cc2)CC1", "recordedEndpoint": "GI50", "testResult": "> 0.2 µM"}
{"molecule": "Cc1cc(C(=O)N[C@@H](c2cc3ccccc3[nH]2)c2cc(F)ccc2O)cc(-c2ncc(N3CCC(O)CC3)cn2)c1", "recordedEndpoint": "GI50", "testResult": "< 0.03 µM"}
{"molecule": "CC(C)c1cc(C(=O)N[C@@H](c2cc3ccccc3[nH]2)c2cc(F)ccc2O)cc(-c2ccc(N3CCC(N)CC3)cc2)c1", "recordedEndpoint": "GI50", "testResult": "> 0.2 µM"}
{"molecule": "Cc1cc(C(=O)N[C@@H](c2cc3ccccc3[nH]2)c2cc(F)ccc2O)cc(-c2ccc(N3CCC(N)CC3)c(F)c2)c1", "recordedEndpoint": "GI50", "testResult": "< 0.03 µM"}
{"molecule": "N#Cc1cc(C(=O)N[C@@H](c2cc3ccccc3[nH]2)c2cc(F)ccc2O)cc(-c2ccc(N3CCC(N)CC3)cc2)c1", "recordedEndpoint": "GI50", "testResult": "> 0.2 µM"}
{"molecule": "Cc1cc(C(=O)N[C@@H](c2cc3ccccc3[nH]2)c2cc(F)ccc2O)cc(-c2ccc(N3CCC(N)CC3)cc2)c1", "recordedEndpoint": "GI50", "testResult": "< 0.03 µM"}
{"molecule": "Cc1cc(C(=O)N[C@@H](c2cc3ccccc3[nH]2)c2cc(F)ccc2O)cc(-c2ccc(N3CCC(N)CC3)c(C)c2)c1", "recordedEndpoint": "GI50", "testResult": "< 0.03 µM"}
{"molecule": "COc1ccc(F)cc1[C@@H](NC(=O)c1ccnc(-c2ccc(N3CCC(N)CC3)cc2)c1)c1cc2ccccc2[nH]1", "recordedEndpoint": "GI50", "testResult": "> 0.2 µM"}
{"molecule": "Cc1cc(C(=O)N[C@@H](c2cc3ccccc3[nH]2)c2cc(F)ccc2O)cc(-c2ncc(N3CCC(CN4CCOCC4)CC3)cn2)c1", "recordedEndpoint": "GI50", "testResult": "> 0.2 µM"}
{"molecule": "NC1CCN(c2ccc(-c3cc(C(=O)N[C@@H](c4cc5ccccc5[nH]4)c4cc(F)ccc4O)cc(C(F)(F)F)c3)cc2)CC1", "recordedEndpoint": "GI50", "testResult": "> 0.2 µM"}
{"molecule": "Cc1cc(C(=O)NC(c2cc3ccccc3[nH]2)c2cc(F)ccc2O)cc(-c2ccc(N3CCC(N)CC3)cc2)c1 (centres unmarked)", "recordedEndpoint": "GI50", "testResult": "< 0.03 µM"}
{"molecule": "Cc1cc(C(=O)N[C@@H](c2cc3ccccc3[nH]2)c2cc(F)ccc2O)cc(-c2ccc(N3CCC(N)CC3)nc2)c1", "recordedEndpoint": "GI50", "testResult": "< 0.03 µM"}
{"molecule": "Cc1cc(C(=O)N[C@@H](c2cc3ccccc3[nH]2)c2cc(F)ccc2O)cc(-c2ccc(N3CCC(N)CC3)nn2)c1", "recordedEndpoint": "GI50", "testResult": "> 0.2 µM"}
{"molecule": "Cc1cc(C(=O)N[C@@H](c2cc3ccccc3[nH]2)c2cc(F)ccc2O)cc(-c2ncc(N3CC[C@@H](N(C)C)C3)cn2)c1", "recordedEndpoint": "GI50", "testResult": "< 0.03 µM"}
{"molecule": "CNC1CCN(c2cnc(-c3cc(C)cc(C(=O)N[C@@H](c4cc5ccccc5[nH]4)c4cc(F)ccc4O)c3)nc2)CC1", "recordedEndpoint": "GI50", "testResult": "< 0.03 µM"}
{"molecule": "Cc1cc(C(=O)N[C@@H](c2cc3ccccc3[nH]2)c2cc(F)ccc2O)cc(-c2ncc(N3CCN(C(=O)OC(C)(C)C)CC3)cn2)c1", "recordedEndpoint": "GI50", "testResult": "< 0.03 µM"}
{"molecule": "NC1CCN(c2ccc(-c3cc(C(=O)N[C@@H](c4cc5ccccc5[nH]4)c4cc(F)ccc4O)cc(-n4ccnc4)c3)cc2)CC1", "recordedEndpoint": "GI50", "testResult": "> 0.2 µM"}
{"molecule": "Cc1c(C(=O)N[C@@H](c2cc3ccccc3[nH]2)c2cc(F)ccc2O)cccc1-c1ccc(N2CCC(N)CC2)cc1", "recordedEndpoint": "GI50", "testResult": "> 0.2 µM"}
{"molecule": "Cc1cc(C(=O)N[C@@H](c2cc3ccccc3[nH]2)c2cc(F)ccc2O)cc(-c2ncc(N3CCC(N(C)C)CC3)cn2)c1", "recordedEndpoint": "GI50", "testResult": "< 0.03 µM"}
{"molecule": "CSc1cc(C(=O)N[C@@H](c2cc3ccccc3[nH]2)c2cc(F)ccc2O)cc(-c2ccc(N3CCC(N)CC3)cc2)c1", "recordedEndpoint": "GI50", "testResult": "> 0.2 µM"}
{"molecule": "Cc1cc(C(=O)N[C@@H](c2cc3ccccc3[nH]2)c2cc(F)ccc2O)cc(-c2ncc(N3CCC(CN4CCCC4)CC3)cn2)c1", "recordedEndpoint": "GI50", "testResult": "> 0.2 µM"}
{"molecule": "Cc1cc(C(=O)N[C@@H](c2cc3ccccc3[nH]2)c2cc(F)ccc2O)cc(-c2ccc(N3CCC(N)CC3)cc2F)c1", "recordedEndpoint": "GI50", "testResult": "< 0.03 µM"}
{"molecule": "Cc1cc(C(=O)N[C@@H](c2cc3ccccc3[nH]2)c2cc(F)ccc2O)cc(-c2cnc(N3CCC(N)CC3)cn2)c1", "recordedEndpoint": "GI50", "testResult": "< 0.03 µM"}

---

# systemUnderTest: Ba/F3 EGFR L858R/T790M (LT) (Homo sapiens, UniProt P00533, T790M/L858R, cells depend on it)
# Sequence (P00533 whole entry T790M/L858R): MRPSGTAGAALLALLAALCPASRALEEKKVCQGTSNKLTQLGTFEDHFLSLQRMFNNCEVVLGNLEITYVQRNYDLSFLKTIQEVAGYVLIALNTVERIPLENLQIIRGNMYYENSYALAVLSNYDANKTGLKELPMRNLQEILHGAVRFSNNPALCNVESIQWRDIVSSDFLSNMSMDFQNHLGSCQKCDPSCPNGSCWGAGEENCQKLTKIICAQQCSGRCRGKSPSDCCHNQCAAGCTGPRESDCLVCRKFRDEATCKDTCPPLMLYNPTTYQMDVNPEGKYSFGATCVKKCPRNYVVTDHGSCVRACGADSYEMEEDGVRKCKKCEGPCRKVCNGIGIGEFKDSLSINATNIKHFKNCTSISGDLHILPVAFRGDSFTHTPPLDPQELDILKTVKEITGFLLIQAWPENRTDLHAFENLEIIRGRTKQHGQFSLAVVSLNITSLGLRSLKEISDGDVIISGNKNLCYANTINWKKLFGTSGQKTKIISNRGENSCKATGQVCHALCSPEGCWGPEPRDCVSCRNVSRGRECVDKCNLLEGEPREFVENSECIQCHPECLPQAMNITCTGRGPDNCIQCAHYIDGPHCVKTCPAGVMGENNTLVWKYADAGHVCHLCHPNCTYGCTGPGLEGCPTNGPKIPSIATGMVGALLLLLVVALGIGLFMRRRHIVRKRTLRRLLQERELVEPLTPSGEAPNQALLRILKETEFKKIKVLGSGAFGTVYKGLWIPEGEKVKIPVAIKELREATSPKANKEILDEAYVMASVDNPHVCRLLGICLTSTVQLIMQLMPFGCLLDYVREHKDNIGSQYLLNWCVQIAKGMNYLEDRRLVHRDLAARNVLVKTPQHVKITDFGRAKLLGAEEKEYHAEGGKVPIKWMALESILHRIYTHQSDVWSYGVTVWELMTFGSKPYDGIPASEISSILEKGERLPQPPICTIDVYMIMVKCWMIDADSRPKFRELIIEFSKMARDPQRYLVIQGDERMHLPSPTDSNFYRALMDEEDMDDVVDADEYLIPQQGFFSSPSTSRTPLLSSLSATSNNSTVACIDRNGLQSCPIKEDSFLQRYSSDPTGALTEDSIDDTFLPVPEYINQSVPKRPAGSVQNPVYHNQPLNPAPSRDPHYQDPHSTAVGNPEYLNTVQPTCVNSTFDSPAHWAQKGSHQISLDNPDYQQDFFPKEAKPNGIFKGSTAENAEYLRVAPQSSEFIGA
# procedureSummary: Cell growth inhibitory ability in Ba/F3 cells overexpressing EGFR L858R/T790M (MTS, CellTiter 96 AQueous)
# Assay type: cell-based
# runConditions: 72 hours, MTS absorbance at 490 nm, read-out: Ba/F3 EGFR double mutant L858R/T790M, IC50
Catalogue of molecules with associated GI50
recordedEndpoint: GI50

{"chemSmiles": "Cc1cc(C(=O)N[C@H](c2cc3ccccc3[nH]2)c2cc(F)ccc2O)cc(-c2ccc(N3CCC(N)CC3)cc2)c1", "testResult": "> 200 nM"}
{"chemSmiles": "NC1CCN(c2ccc(-c3cc(C(=O)N[C@@H](c4cc5ccccc5[nH]4)c4cc(F)ccc4O)cc([N+](=O)[O-])c3)cc2)CC1", "testResult": "> 200 nM"}
{"chemSmiles": "N#Cc1cc(C(=O)N[C@@H](c2cc3ccccc3[nH]2)c2cc(F)ccc2O)cc(-c2ccc(N3CCC(N)CC3)cc2)c1", "testResult": "> 200 nM"}
{"chemSmiles": "CSc1cc(C(=O)N[C@@H](c2cc3ccccc3[nH]2)c2cc(F)ccc2O)cc(-c2ccc(N3CCC(N)CC3)cc2)c1", "testResult": "> 200 nM"}
{"chemSmiles": "Cc1cc(C(=O)N[C@@H](c2cc3ccccc3[nH]2)c2cc(F)ccc2O)cc(-c2ncc(N3CC[C@@H](N)C3)cn2)c1", "testResult": "< 30 nM"}
{"chemSmiles": "Cc1cc(C(=O)N[C@@H](c2cc3ccccc3[nH]2)c2cc(F)ccc2O)cc(-c2cnc(N3CCC(N)CC3)cn2)c1", "testResult": "< 30 nM"}
{"chemSmiles": "Cc1cc(C(=O)N[C@@H](c2cc3ccccc3[nH]2)c2cc(F)ccc2O)cc(-c2ccc(N3CCC(N)CC3)cc2C)c1", "testResult": "< 30 nM"}
{"chemSmiles": "Cc1cc(C(=O)N[C@@H](c2cc3ccc(Cl)cc3[nH]2)c2cc(F)ccc2O)cc(-c2ccc(N3CCC(N)CC3)cc2)c1", "testResult": "30 to 200 nM"}
{"chemSmiles": "Cc1cc(C(=O)N[C@@H](c2cc3ccccc3[nH]2)c2cc(F)ccc2O)cc(-c2ncc(N3CCNCC3)cn2)c1", "testResult": "< 30 nM"}
{"chemSmiles": "Cc1cc(C(=O)N[C@@H](c2cc3ccc(F)cc3[nH]2)c2cc(F)ccc2O)cc(-c2ccc(N3CCC(N)CC3)cc2)c1", "testResult": "< 30 nM"}
{"chemSmiles": "CCN(CC)C1CCN(c2cnc(-c3cc(C)cc(C(=O)N[C@@H](c4cc5ccccc5[nH]4)c4cc(F)ccc4O)c3)nc2)CC1", "testResult": "< 30 nM"}
{"chemSmiles": "COc1ccc(F)cc1[C@@H](NC(=O)c1ccnc(-c2ccc(N3CCC(N)CC3)cc2)c1)c1cc2ccccc2[nH]1", "testResult": "> 200 nM"}
{"chemSmiles": "Cc1cc(C(=O)N[C@@H](c2cc3ccccc3[nH]2)c2cc(F)ccc2O)cc(-c2ncc(N3CCN(C)CC3)cn2)c1", "testResult": "30 to 200 nM"}
{"chemSmiles": "CCCC1CCN(c2cnc(-c3cc(C)cc(C(=O)N[C@@H](c4cc5ccccc5[nH]4)c4cc(F)ccc4O)c3)nc2)CC1", "testResult": "> 200 nM"}
{"chemSmiles": "Cc1cc(C(=O)N[C@@H](c2cc3ccccc3[nH]2)c2cc(F)ccc2O)cc(-c2cc(C)c(N3CCC(N)CC3)cn2)c1", "testResult": "< 30 nM"}
{"chemSmiles": "Cc1cc(C(=O)N[C@@H](c2cc3ccccc3[nH]2)c2cc(F)ccc2O)cc(-c2ncc(N3CCCCC3)cn2)c1", "testResult": "< 30 nM"}
{"chemSmiles": "Cc1cc(C(=O)N[C@@H](c2cc3ccccc3[nH]2)c2cc(F)ccc2O)cc(-c2ccc(N3CCC(N)CC3)c(F)c2)c1", "testResult": "< 30 nM"}
{"chemSmiles": "Cc1cc(C(=O)N[C@@H](c2cc3ccccc3[nH]2)c2cc(F)ccc2O)cc(-c2ccc(N3CCC(N)CC3)cn2)c1", "testResult": "< 30 nM"}
{"chemSmiles": "NC1CCN(c2ccc(-c3cc(Cl)cc(C(=O)N[C@@H](c4cc5ccccc5[nH]4)c4cc(F)ccc4O)c3)cc2)CC1", "testResult": "< 30 nM"}
{"chemSmiles": "Cc1cc(C(=O)N[C@@H](c2cc3ccccc3[nH]2)c2cc(F)ccc2O)cc(-c2ccc(N3CCC(N)CC3)cc2)c1", "testResult": "< 30 nM"}
{"chemSmiles": "Cc1cc(C(=O)N[C@@H](c2cc3ccccc3[nH]2)c2cc(F)ccc2O)cc(-c2ccc(N3CCC(N)CC3)c(C)c2)c1", "testResult": "< 30 nM"}
{"chemSmiles": "NC1CCN(c2ccc(-c3cc(OC(F)(F)F)cc(C(=O)N[C@@H](c4cc5ccccc5[nH]4)c4cc(F)ccc4O)c3)cc2)CC1", "testResult": "> 200 nM"}
{"chemSmiles": "COc1ccc(F)cc1[C@@H](NC(=O)c1cc(OC(F)(F)F)cc(-c2ccc(N3CCC(N)CC3)cc2)c1)c1cc2ccccc2[nH]1", "testResult": "30 to 200 nM"}
{"chemSmiles": "Cc1cc(C(=O)N[C@@H](c2cc3ccccc3[nH]2)c2cc(F)ccc2O)cc(-c2ncc(N3CCC(N)CC3)cn2)c1", "testResult": "< 30 nM"}
{"chemSmiles": "NC1CCN(c2ccc(-c3cc(C(=O)N[C@@H](c4cc5ccccc5[nH]4)c4cc(F)ccc4O)cc(-n4ccnc4)c3)cc2)CC1", "testResult": "> 200 nM"}
{"chemSmiles": "Cc1cc(C(=O)N[C@@H](c2cc3ccccc3[nH]2)c2cc(F)ccc2O)cc(-c2ccc(N3CCC(N)CC3)nc2)c1", "testResult": "< 30 nM"}

These measurements were taken from patent US20240246948A1.
